// GI50 lookup, one value per entry
Tested on: A2780
assay-notes: Cytotoxicity against human A2780 cells after 48 hrs by SRB assay
Assay type: functional
particulars: A2780, 48 h
parameter-measured: GI50

> print(dat)
                                   compound  result
1  CC(C)c1cc2c(c(O)c1O)[C@@]13CCCC(C)(C)[C@@H]1C[C@@H]2OC3=O [CARNOSOL]  3.6 µM
2  CC(C)c1cc(C=O)c2c(c1O)OC(=O)[C@@]21CCCC(C)(C)[C@@H]1C=O [ROSMADIAL]   36 µM
3  CC(C)c1cc2c(c(O)c1O)[C@@]13CCCC(C)(C)[C@@H]1C[C@@H]2OC3  5.4 µM
4  CC(C)C1=C[C@]2(O)CC[C@H]3C(C)(C)CCC[C@]3(C)C2=CC1=O   19 µM
5  COc1cc2c(cc1C(C)C)C(=O)C=C1C(C)(C)CCC[C@@]12C   16 µM
6  CC(CO)c1cc2c(c(O)c1O)[C@@]13CCCC(C)(C)[C@@H]1C[C@@H]2OC3=O (stereo partly drawn)  3.6 µM
7  CC(C)c1cc2c(c(O)c1O)[C@@]13CCCC(C)(C)[C@@H]1[C@@H](O)[C@@H]2OC3=O [ISOROSMANOL]   19 µM
8  CC(C)C1=C[C@@]23CC[C@H]4C(C)(C)CCC[C@]4(CO2)C3=C(O)C1=O [PACHYPHYLLONE]   14 µM
